- TESTED SYSTEM: T1, PDZD2_2, O15018
- T1 sequence (O15018 329-429, limits assumed, looked up): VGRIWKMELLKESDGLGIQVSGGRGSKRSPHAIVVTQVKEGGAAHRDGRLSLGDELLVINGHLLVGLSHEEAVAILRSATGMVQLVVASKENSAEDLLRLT
- ASSAY REMARKS: holdup assay
- Parameters: key: below the threshold = too weak to quantify, mostly under pKd 3.1 to 4
- CONDITIONS: plain residues with an end cap or a label only (N-terminal biotin on a linker: ttds)
QUANTITY: pKd

> print(dat)
                          binder               result
1  SSRTRRETQL [HPV16-E6, P03126]  below the threshold
2   SVWLRKETRV [CYSLTR2, Q9NS75]                  3.8
3    VLRLQSETSV [VANGL1, Q8TAA9]                 4.12
4      QSARYRDTEL [TJP2, Q9UDY2]  below the threshold
5   PKTPPTDTSV [KIR3DL3, Q8N743]                    4
6  SRPQRTQTQV [HPV67-E6, A4U7F2]                 3.77
7     STLTIFETAL [ABCC4, O15439]                 3.65
8      ERKLSSESQV [LRP4, O75096]                 4.39
